Every entry's value here was drawn from patent US20230346670A1.

System: S. sanguinis
Protocol description: Multi-species biofilm composition, absolute abundance (Geq/mL)
Type: cell-based
Measurement conditions: substrate 1% (w/v), repeated rinsing
For each entry below, report its absolute abundance of S. sanguinis, mean ± SD log (Geq/mL) value.

Field: example entries. Status: answers known.
>>> endpoint_result("OC[C@H]1O[C@H](O[C@H]2O[C@H](CO)[C@@H](O)[C@H](O)[C@H]2O)[C@H](O)[C@@H](O)[C@@H]1O [D-trehalose, D-(+)-trehalose]")
"8.42 ± 0.43 log (Geq/mL)"
>>> endpoint_result("OC[C@H]1O[C@@H](O[C@H]2[C@H](O)[C@@H](O)[C@@H](O)O[C@@H]2CO)[C@H](O)[C@@H](O)[C@H]1O [D-lactose, α-D-lactose]")
"8.99 ± 0.54 log (Geq/mL)"
>>> endpoint_result("CC(=O)N[C@H]1C(O)O[C@H](CO)[C@@H](O)[C@@H]1O (stereo partly drawn) [NADG, N-acetyl-D-glucosamine]")
"8.40 ± 0.11 log (Geq/mL)"

Then this compound:
Give absolute abundance of S. sanguinis, mean ± SD log (Geq/mL) for OC[C@H]1O[C@H](OC[C@H]2O[C@H](O[C@]3(CO)O[C@H](CO)[C@@H](O)[C@@H]3O)[C@H](O)[C@@H](O)[C@@H]2O)[C@H](O)[C@@H](O)[C@H]1O [D-raffinose, D-(+)-raffinose]
8.56 ± 0.11 log (Geq/mL)

====

For each entry below, report its fold change in flp expression, geometric mean (95% C.I.) value.
System: A. actinomycetemcomitans virulence genes
Protocol description: Virulence gene expression in multi-species biofilm (SYBR RT-qPCR)
Format: cell-based
Measurement conditions: lower part of Table 6a, substrate 1%(w/v); relative to control = 1

Field: example entries. Status: answers known.
>>> endpoint_result("OC[C@H]1O[C@H](OC[C@H]2O[C@H](O[C@]3(CO)O[C@H](CO)[C@@H](O)[C@@H]3O)[C@H](O)[C@@H](O)[C@@H]2O)[C@H](O)[C@@H](O)[C@H]1O [D-raffinose, D-(+)-raffinose]")
"0.89 (0.40-1.99) fold"
>>> endpoint_result("OC[C@H]1O[C@@H](O[C@H]2[C@H](O)[C@@H](O)[C@@H](O)O[C@@H]2CO)[C@H](O)[C@@H](O)[C@H]1O [D-lactose, α-D-lactose]")
"0.81 (0.08-7.83) fold"
>>> endpoint_result("OC[C@H]1O[C@H](O[C@H]2O[C@H](CO)[C@@H](O)[C@H](O)[C@H]2O)[C@H](O)[C@@H](O)[C@@H]1O [D-trehalose, D-(+)-trehalose]")
"0.48 (0.07-3.50) fold"

Give fold change in flp expression, geometric mean (95% C.I.) for CC(=O)N[C@H]1C(O)O[C@H](CO)[C@@H](O)[C@@H]1O (stereo partly drawn) [NADG, N-acetyl-D-glucosamine]
0.54 (0.19-1.56) fold

====

For each entry below, report its fold change in TNF-α gene expression, geometric mean (C.I.) value.
Tested on: human oral keratinocytes (HOK-18A)
Protocol description: Inflammatory mediator gene expression in keratinocytes exposed to substrate-treated biofilms (SYBR RT-qPCR)
Type: cell-based
Measurement conditions: HOK-18A exposed to biofilms treated with substrate 1% (w/v); relative to control; n = 3
Method: Cultures of immortalized human oral keratinocytes (HOK-18A) are grown. […] The IL-8 levels in the cellular supernatant are determined as well. RNA is converted to cDNA and relative expression of inflammatory mediator genes is determined as described above with respect to the cellular housekeeping gene β-actin. […]

Field: example entries. Status: answers known.
>>> endpoint_result("OC[C@H]1O[C@H](OC[C@H]2O[C@H](O[C@]3(CO)O[C@H](CO)[C@@H](O)[C@@H]3O)[C@H](O)[C@@H](O)[C@@H]2O)[C@H](O)[C@@H](O)[C@H]1O [D-raffinose, D-(+)-raffinose]")
"0.77 (0.55-1.08) fold"
>>> endpoint_result("OC[C@H]1O[C@H](O[C@H]2O[C@H](CO)[C@@H](O)[C@H](O)[C@H]2O)[C@H](O)[C@@H](O)[C@@H]1O [D-trehalose, D-(+)-trehalose]")
"0.94 (0.54-1.64) fold"
>>> endpoint_result("CC(=O)N[C@H]1C(O)O[C@H](CO)[C@@H](O)[C@@H]1O (stereo partly shown)")
"0.71 (0.28-1.35)^∗ fold"

Then this compound:
Give fold change in TNF-α gene expression, geometric mean (C.I.) for OC[C@H]1O[C@@H](O[C@H]2[C@H](O)[C@@H](O)[C@@H](O)O[C@@H]2CO)[C@H](O)[C@@H](O)[C@H]1O
0.81 (0.50-1.33) fold
